- System tested: T1, murine TIM-3 extracellular domain protein with hFc tag (mTIM-3-hFc) (mouse, UniProt Q8VIM0 29-191)
- T1 construct: also called mouse TIM-3 extracellular domain protein; not shown: human IgG Fc fragment (hFc) of the pCpC vector
- T1 chain: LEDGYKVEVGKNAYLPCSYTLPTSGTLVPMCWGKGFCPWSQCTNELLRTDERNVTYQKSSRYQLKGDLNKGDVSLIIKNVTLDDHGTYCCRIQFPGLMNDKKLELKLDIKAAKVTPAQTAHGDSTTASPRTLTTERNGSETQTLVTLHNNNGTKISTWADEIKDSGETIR
- Method description: ELISA, coated mouse TIM-3 ECD protein, 0.0667 nM antibody
Measurement type: OD450
A bare number is all that is needed in reply.

18D2H2 fully human TIM-3 antibody (human IgG4, kappa) (antibody, V domains shown) VH: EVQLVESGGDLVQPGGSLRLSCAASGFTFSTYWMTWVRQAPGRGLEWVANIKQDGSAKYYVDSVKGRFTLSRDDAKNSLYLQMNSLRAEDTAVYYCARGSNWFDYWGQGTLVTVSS VL: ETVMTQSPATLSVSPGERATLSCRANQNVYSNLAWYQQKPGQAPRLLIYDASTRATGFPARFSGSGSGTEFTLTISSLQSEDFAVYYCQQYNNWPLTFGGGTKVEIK : 0.22
134H3G6 fully human TIM-3 antibody (human IgG4, kappa) (antibody, V domains shown) VH: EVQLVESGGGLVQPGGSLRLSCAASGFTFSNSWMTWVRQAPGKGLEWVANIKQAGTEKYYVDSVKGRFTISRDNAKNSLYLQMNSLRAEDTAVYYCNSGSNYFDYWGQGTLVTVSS VL: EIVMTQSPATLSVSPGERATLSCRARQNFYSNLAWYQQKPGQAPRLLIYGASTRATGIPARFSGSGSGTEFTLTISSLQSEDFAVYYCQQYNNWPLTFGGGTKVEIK : 0.21

Shifting focus to the binder that follows.
Provide only the value of recorded OD450 for 39E5H1 fully human TIM-3 antibody (human IgG4, kappa) (antibody, V domains shown) VH: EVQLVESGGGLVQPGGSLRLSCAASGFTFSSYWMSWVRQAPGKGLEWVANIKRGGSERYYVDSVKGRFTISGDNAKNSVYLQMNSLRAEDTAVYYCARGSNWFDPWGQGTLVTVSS VL: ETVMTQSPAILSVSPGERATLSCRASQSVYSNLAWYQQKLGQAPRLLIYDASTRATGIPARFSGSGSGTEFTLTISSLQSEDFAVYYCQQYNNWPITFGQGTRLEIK
0.24
